The measured values listed here are drawn from patent US20240309103A1.

TEST_SYSTEM: T1, mfNPR1-mFc:hANP complex (monkey; human, UniProt P01160 124-151)
T1 construct: also called monkey NPR1 complexed to ANP
TEST_PROTOCOL: SPR, mAb captured, 25C
Give measured 100 nM Ag Bound (RU) for each item. Keep answers brief.

Input line: Provide measured 100 nM Ag Bound (RU) value, entry: mAb25491 (antibody, human IgG4, V domains shown) VH: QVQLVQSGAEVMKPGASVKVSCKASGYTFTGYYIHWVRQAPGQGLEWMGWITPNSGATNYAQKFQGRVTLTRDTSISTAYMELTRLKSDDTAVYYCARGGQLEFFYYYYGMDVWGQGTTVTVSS VL: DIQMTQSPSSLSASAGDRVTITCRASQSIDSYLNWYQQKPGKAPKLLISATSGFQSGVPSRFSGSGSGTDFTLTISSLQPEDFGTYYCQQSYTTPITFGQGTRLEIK
Output line: 111 RU

Input line: Provide measured 100 nM Ag Bound (RU) value, entry: mAb22035 (antibody, human IgG4, V domains shown) VH: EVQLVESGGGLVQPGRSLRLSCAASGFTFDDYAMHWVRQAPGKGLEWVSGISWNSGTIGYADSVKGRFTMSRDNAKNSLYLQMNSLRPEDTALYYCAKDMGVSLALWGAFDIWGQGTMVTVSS VL: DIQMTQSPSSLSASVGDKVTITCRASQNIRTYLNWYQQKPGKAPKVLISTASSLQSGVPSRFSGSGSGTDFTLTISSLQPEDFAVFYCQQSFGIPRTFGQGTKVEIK
Output line: 227 RU

Input line: Provide measured 100 nM Ag Bound (RU) value, entry: mAb25502 (antibody, human IgG4, V domains shown) VH: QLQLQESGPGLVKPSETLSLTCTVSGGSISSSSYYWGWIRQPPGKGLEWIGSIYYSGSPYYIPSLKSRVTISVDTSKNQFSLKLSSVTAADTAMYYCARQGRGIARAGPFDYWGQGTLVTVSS VL: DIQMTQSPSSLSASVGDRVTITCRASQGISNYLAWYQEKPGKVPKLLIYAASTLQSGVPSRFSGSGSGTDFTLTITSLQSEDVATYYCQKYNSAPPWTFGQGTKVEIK
Output line: 113 RU
